Hello, the source for this data is PubChem BioAssay AID720504, in case you need it.

Each item that follows carries a reported max response, negative = inhibition.
Molecular target: Serine/threonine-protein kinase PLK1 (Homo sapiens) (UniProt P53350)
Sequence (P53350 whole entry, looked up, the tested form may be a part): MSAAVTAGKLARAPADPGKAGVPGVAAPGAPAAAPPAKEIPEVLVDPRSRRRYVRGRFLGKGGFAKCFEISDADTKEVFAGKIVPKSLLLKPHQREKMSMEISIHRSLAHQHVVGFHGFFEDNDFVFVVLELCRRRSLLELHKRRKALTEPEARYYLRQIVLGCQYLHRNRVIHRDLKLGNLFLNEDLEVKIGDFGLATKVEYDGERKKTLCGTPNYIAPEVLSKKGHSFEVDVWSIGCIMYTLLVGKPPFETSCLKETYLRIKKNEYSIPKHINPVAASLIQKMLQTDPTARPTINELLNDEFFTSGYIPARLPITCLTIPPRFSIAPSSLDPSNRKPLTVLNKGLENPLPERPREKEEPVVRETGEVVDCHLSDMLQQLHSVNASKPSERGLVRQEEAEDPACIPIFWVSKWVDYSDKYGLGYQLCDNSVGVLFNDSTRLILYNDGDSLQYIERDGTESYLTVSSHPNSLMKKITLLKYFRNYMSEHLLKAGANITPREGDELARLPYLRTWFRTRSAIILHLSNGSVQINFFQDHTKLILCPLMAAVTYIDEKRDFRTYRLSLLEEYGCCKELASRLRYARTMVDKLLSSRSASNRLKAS
Assay: qHTS for Inhibitors of PLK1-PDB (polo-like kinase 1 - polo-box domain): Primary Screen; note: series mostly up to about 57 µM; % is set by controls: 0 for no effect and ±100 for the full control effect; nearly all actives have a fitted effect of over 65% in size
Conditions: Plk1 PBD binding of FITC phosphopeptide, fluorescence polarization
Source text: The polo-like kinase 1 (Plk1) is a member of a conserved subfamily of serine / threonine protein kinases that plays a pivotal roles in cell proliferation. It has a C-terminal non-catalytic region called the polo-box domain (PBD) that plays a crucial role in the subcellular localization of the Plk1. […] This project employed a fluorescence polarization (FP) assay using a FITC-conjugated phospho-9-mer (p-9-mer) peptide and purified human Plk1 PBD protein. […]
The campaign covered roughly 360,000 compounds. About 10,000 (2.8%) were called active. Inconclusive results (about 4%) are left out. The sample as a whole holds a higher share of actives than the screen did.

Consider the following illustrative entries.
CCCCN(C=O)c1c(CC)nc2c(OCCC3CCCCC3)cccn12 :: -1.3% (inactive)
O=C(Nc1ccc2c(c1)OCCO2)C1c2ccccc2OCC(=O)N1Cc1ccccn1 (centres undefined) :: -7.8% (inactive)
CCOc1ccc(NS(=O)(=O)c2ccc(C(=O)NCC3CCCO3)cc2)cc1 (centres undefined) :: 1.53% (inactive)
CCCc1cc(=O)oc2c(C)c(OCC(=O)Nc3ccccn3)ccc12 :: 7.66% (inactive)
COc1cccc(-c2cnc3c(NC(C)=O)cc(-c4cccc(NC(C)=O)c4)cn23)c1 :: -1.26% (inactive)
O=C1NC[C@H](CCCCN2CCN(CCc3ccccc3)C(=O)C2=O)N(CC2CCCCC2)C1=O :: -4.62% (inactive)
CCc1ccc(N(CC(=O)NCc2cccnc2)S(=O)(=O)c2ccccc2)cc1 :: -2.42% (inactive)
C=CCC[C@H](CCCCC)OC(=O)/C=C/[C@H](O)[C@@H](O)C[C@@H](O)CC=C :: -13.7% (inactive)
CCOC(=O)C1(C)CCCN(C(=O)c2cccc(Cl)c2)C1 (centres undefined) :: -9.97% (inactive)
CCCCn1c(SCC(=O)N2CCOCC2)nc2c1c(=O)n(C)c(=O)n2C :: -13.8% (inactive)

Using the record for N#CCCN(C(=S)Nc1ccc(Cl)c(Cl)c1)C1CCCCC1 , report its max response, negative = inhibition.
-9.12% (inactive)

Check Cc1c(C(=O)NCc2ccc(C#N)cc2)sc(=O)n1Cc1ccc(C(=O)N(C)C)cc1 too.
-10.6% (inactive)

Check COc1cccc2cc(-c3cc(=O)oc4cc(C)c(O)cc34)oc12 too.
-14.5% (inactive)

Check CCCc1cc(=O)oc2c(C)c(OCC(=O)NCc3ccccn3)ccc12 too.
0.145% (inactive)

Check O=C(NCc1ccccn1)[C@@H]1CCCN1C(=O)[C@@H]1CCCN1C(=O)c1ccccc1 too.
-3.01% (inactive)

----------
Target: Serine/threonine-protein kinase PLK1 (Homo sapiens)
Experiment: qHTS for Inhibitors of PLK1-PDB (polo-like kinase 1 - polo-box domain): Primary Screen; note: series mostly up to about 57 µM; % is set by controls: 0 for no effect and ±100 for the full control effect; nearly all actives have a fitted effect of over 65% in size
Details: Plk1 PBD binding of FITC phosphopeptide, fluorescence polarization
Excerpt: The polo-like kinase 1 (Plk1) is a member of a conserved subfamily of serine / threonine protein kinases that plays a pivotal roles in cell proliferation. It has a C-terminal non-catalytic region called the polo-box domain (PBD) that plays a crucial role in the subcellular localization of the Plk1. […] This project employed a fluorescence polarization (FP) assay using a FITC-conjugated phospho-9-mer (p-9-mer) peptide and purified human Plk1 PBD protein. […]
In all, about 360,000 compounds went through this assay and about 10,000 (2.8%) were called active. Another 4% or so got no clear call; they are omitted. Many of the other results were omitted from the sample, so actives are more common in it than they were.
Each item that follows carries a reported max response, negative = inhibition.
Form entry: value (%) — number only.

Consider the following illustrative entries.
CN(C)/C=C/C(=O)c1ccccc1F :: -6.3
CCCCC[C@H](C)N1C[C@@H](COCc2ccccc2)Oc2cc(N3CCC[C@@H]3CO)ccc2S1(=O)=O :: -6.61
CNC[C@H]1OCc2cnnn2CCCC(=O)N([C@H](C)CO)C[C@@H]1C :: -6.68
CCN(CC)S(=O)(=O)c1ccc(N(C)Cc2cccc(OC)c2OC)nc1 :: -1.33

The record that follows has no max response, negative = inhibition shown yet.
Using the record for O=C(NCc1cccnc1)c1cc(C2CCCCN2C(=O)CCc2ccccc2)on1 (stereo not given) , report its max response, negative = inhibition.
-11.3
